Readings of Met Kinase % Inhibition (P.130) for the listed compounds
TARGET_OF_ASSAY: Met receptor (EGFR/Met chimeric cells, EMR) (Homo sapiens, UniProt P08581)
Construct: expressed in transfected cells; the other entry of the earlier key: EGFR (P00533, Epidermal growth factor receptor)
Sequence (P08581 with tags, fused parts or gaps): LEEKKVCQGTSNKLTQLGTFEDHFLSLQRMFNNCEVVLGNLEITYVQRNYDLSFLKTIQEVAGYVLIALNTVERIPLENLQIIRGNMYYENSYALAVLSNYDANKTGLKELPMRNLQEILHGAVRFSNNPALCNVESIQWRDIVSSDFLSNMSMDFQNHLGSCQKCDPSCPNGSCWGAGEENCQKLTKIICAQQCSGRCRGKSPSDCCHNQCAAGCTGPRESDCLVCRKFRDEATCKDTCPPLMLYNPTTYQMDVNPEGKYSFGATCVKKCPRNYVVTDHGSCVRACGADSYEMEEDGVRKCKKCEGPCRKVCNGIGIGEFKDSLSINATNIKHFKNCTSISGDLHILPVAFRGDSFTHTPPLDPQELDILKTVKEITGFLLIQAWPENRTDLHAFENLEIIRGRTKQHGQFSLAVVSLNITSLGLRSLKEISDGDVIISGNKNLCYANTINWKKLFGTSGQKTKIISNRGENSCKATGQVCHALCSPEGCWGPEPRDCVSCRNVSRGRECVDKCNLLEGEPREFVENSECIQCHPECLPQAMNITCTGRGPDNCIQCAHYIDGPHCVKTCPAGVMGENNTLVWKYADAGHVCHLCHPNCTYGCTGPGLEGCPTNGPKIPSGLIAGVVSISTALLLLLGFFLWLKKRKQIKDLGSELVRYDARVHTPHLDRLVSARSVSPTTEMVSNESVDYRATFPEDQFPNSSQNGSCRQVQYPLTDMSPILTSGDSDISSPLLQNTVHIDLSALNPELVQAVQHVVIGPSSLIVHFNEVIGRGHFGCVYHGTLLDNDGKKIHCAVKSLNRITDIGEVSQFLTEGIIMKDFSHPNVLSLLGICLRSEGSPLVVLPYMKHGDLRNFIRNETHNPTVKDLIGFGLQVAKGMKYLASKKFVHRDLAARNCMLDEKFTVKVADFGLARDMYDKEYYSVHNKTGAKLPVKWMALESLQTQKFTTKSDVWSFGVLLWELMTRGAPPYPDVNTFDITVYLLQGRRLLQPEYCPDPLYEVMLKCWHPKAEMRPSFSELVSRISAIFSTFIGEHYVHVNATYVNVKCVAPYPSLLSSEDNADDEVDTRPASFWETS
EXPERIMENT_SUMMARY: Met Autophosphorylation Assay
Format: biochemical

MOLECULE_SMILES | Met Kinase % Inhibition (P.130), %
Cc1c(Br)cc(Br)c2c1C(=Cc1coc3ccccc3c1=O)C(=O)N2 | 26.8
CNS(=O)(=O)c1ccc2c(c1)C(=Cc1ccccc1C)C(=O)N2 | 32.6
CNS(=O)(=O)c1ccc2c(c1)C(=Cc1ccc(C)cc1)C(=O)N2 | 3.9
CNS(=O)(=O)c1ccc2c(c1)C(=Cc1c(F)cccc1F)C(=O)N2 | 25.6
CCOc1cccc(C=C2C(=O)Nc3ccc(S(=O)(=O)Nc4ccc(C(F)(F)F)cc4)cc32)c1O | 66.9
CNS(=O)(=O)c1ccc2c(c1)C(=Cc1ccc(Br)s1)C(=O)N2 | 33.9

----------
TARGET_OF_ASSAY: Met receptor (EGFR/Met chimeric cells, EMR) (Homo sapiens, UniProt P08581)
Construct: expressed in transfected cells; the other entry of the earlier key: EGFR (P00533, Epidermal growth factor receptor)
EXPERIMENT_SUMMARY: Met Autophosphorylation Assay
Assay type: biochemical
Protocol: Met Autophosphorylation Assay This assay determines Met tyrosine kinase activity by analyzing Met protein tyrosine kinase levels on the Met receptor. a. HNTG (5× stock solution): Dissolve 23.83 g HEPES and 43.83 g NaCl in about 350 ml dH2O. Adjust pH to 7.2 with HCl or NaOH, add 500 ml glycerol and 10 ml Triton X-100, mix, add dH2O to 1 L total volume. […] 2. […] Add ½ the calculated HNTG volume, vortex the tube for 1 min., add the remaining amount of HNTG, vortex for another min. […]
Label key: YES means Met Kinase % Inhibition (P.130) under 30%; NO means Met Kinase % Inhibition (P.130) of 30% or more.

MOLECULE_SMILES | CLASS_NAME
CCc1ccc(C=C2C(=O)Nc3ccc(S(=O)(=O)Nc4ccc(C(F)(F)F)cc4)cc32)cc1 | NO
CNS(=O)(=O)c1ccc2c(c1)C(=Cc1ccccc1C(F)(F)F)C(=O)N2 | YES
O=C1Nc2c(Br)cc(Br)cc2C1=Cc1ccc(Br)s1 | NO
Cc1c(Br)cc(Br)c2c1C(=Cc1ccc(OCc3ccccc3)c(C(C)(C)C)c1)C(=O)N2 | NO
Cc1c(O)ccc(C=C2C(=O)Nc3c(Br)cc(Br)c(C)c32)c1O | NO
O=C1Nc2ccc(CCCl)cc2C1=Cc1cc(Br)cc(Br)c1O | NO

All values here come from patent US20020026053A1.
